Source of measurements: patent US20140112930A1

# assayed_system: T1, Dimeric Mouse Ang-2FD conjugated to human IgG1 (mouse (Mus musculus); human)
# T1 construct: also called Mouse Ang-2FD-hFc
# T1 sequence (chain, as listed by the source limits assumed): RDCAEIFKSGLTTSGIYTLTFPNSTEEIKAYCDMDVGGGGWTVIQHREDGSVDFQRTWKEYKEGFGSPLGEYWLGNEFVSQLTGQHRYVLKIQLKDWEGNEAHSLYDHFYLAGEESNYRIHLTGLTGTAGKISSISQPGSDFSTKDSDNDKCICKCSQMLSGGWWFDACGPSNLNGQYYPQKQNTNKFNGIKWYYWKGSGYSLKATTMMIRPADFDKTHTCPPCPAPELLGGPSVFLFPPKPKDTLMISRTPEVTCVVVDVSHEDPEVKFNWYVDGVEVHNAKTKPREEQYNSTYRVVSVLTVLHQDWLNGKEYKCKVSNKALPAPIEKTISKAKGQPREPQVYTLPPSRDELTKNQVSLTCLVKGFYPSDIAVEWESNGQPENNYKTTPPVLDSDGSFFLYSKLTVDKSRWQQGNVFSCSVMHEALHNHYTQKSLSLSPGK
# method: SPR, captured Ab, RT
# reported T1/2; entries follow
Please answer in the form of a number followed by its unit of measurement.

* H2M749N (antibody, V domains shown, also called H1M749N; H1M749) VH: QVQLVESGGGVVQPGRSLRLSCAASGFTFSSYGMHWVRQAPGKGLEWVAVIWYDEFNKYYADSVKGRFTISRDNSKNTLYLQMNSLRAEDTAVYYCARERESGYSYGFDYWGQGTLVTVSS VL: EIVMTQSPATLSVSPGERATLSCRAGQSVSSNLAWYQQKPGQAPRLLIYGASTRATGIPARFSGSGSGTEFTLTISSLQSEDFAVYYCQQYNNWWTFGQGTKVEIK | 0.425 h

Here's the next entry for you.
Which T1/2 reading was recorded for the binder H1H685P (antibody, V domains shown) VH: EVQLVESGGGLVQPGGSLRLSCAASGFTFSSYDIHWVRQATGKGLEWVSAIGPAGDTYYPGSVKGRFTISRENAKNSLYLQMNSLRAGDTAVYYCARGLITFGGLIAPFDYWGQGTLVTVSS VL: EIVLTQSPGTLSLSPGERATLSCRASQSVSSTYLAWYQQKPGQAPRLLIYGASSRATGIPDRFSGSGSGTDFTLTISRLEPEDFAVYYCQHYDNSQTFGQGTKVEIK ?
2.14 h
